- Tested on: larvae of the mustard beetle (Phaedon cochleariae)
- TEST: Phaedon larvae test
- Format: in vivo
- MEASUREMENT PARAMETERS: 1000 ppm
PARAMETER: Destruction in % after 7 d (%)

> print(dat)
                                   compound                   parameter  unit.abbreviation  experimental.result
1   COc1cc(Cl)cc(C)c1C1=C(O)C2(CCOCC2)NC1=O  Destruction in % after 7 d                  %                  100
2  COc1cc(Cl)cc(C)c1C1=C(O)C2(CCC(C)CC2)NC1=O (centres unmarked)  Destruction in % after 7 d                  %                  100
3  CCc1cc(Cl)cc(OC)c1C1=C(O)C2(CCC(OC)CC2)NC1=O (single isomer, unassigned)  Destruction in % after 7 d                  %                   80
4  CCc1cc(Cl)cc(OC)c1C1=C(O)C2(CCCCC2)NC1=O  Destruction in % after 7 d                  %                   90
5  CCc1cc(Cl)cc(OC)c1C1=C(O)C2(CCC(C)CC2)NC1=O (single isomer, unassigned)  Destruction in % after 7 d                  %                  100

* * *

- System: Alopecurus
- TEST: Post-emergence test
- Assay type: in vivo
- MEASUREMENT PARAMETERS: greenhouse, 250 g a.i./ha, scored after three weeks
PARAMETER: degree of damage, Alopecurus (%)

> print(dat)
                                   compound                     parameter  experimental.result
1  CCc1cc(Cl)cc(OC)c1C1=C(O)C2(CCC(C)CC2)NC1=O (single isomer, unassigned)  degree of damage, Alopecurus                  100
2  COc1cc(Cl)cc(C)c1C1=C(O)C2(CCC(C)CC2)NC1=O (centres unmarked)  degree of damage, Alopecurus                  100
3     CCc1cc(Cl)cc(OC)c1C1=C(O)C(C)(C)NC1=O  degree of damage, Alopecurus                  100
4  CCc1cc(Cl)cc(OC)c1C1=C(O)C2(CCCCC2)NC1=O  degree of damage, Alopecurus                   90
5  CCc1cc(Cl)cc(OC)c1C1=C(O)C2(CCC(OC)CC2)NC1=O (single isomer, unassigned)  degree of damage, Alopecurus                  100

* * *

- System: Alopecurus
- TEST: Pre-emergence test
- Type: in vivo
- MEASUREMENT PARAMETERS: greenhouse, 250 g a.i./ha, scored after three weeks
Listed here are compounds together with their documented degree of damage, Alopecurus.
PARAMETER: degree of damage, Alopecurus (%)

> print(dat)
                                   compound  measured.on                     parameter  unit.abbreviation  experimental.result
1     CCc1cc(Cl)cc(OC)c1C1=C(O)C(C)(C)NC1=O   Alopecurus  degree of damage, Alopecurus                  %                   90
2  CCc1cc(Cl)cc(OC)c1C1=C(O)C2(CCC(OC)CC2)NC1=O (single isomer, unassigned)   Alopecurus  degree of damage, Alopecurus                  %                   80
3   COc1cc(Cl)cc(C)c1C1=C(O)C2(CCOCC2)NC1=O   Alopecurus  degree of damage, Alopecurus                  %                  100
4  CCc1cc(Cl)cc(OC)c1C1=C(O)C2(CCC(C)CC2)NC1=O (single isomer, unassigned)   Alopecurus  degree of damage, Alopecurus                  %                   90

Where do these numbers come from? They come from patent US7888285B2.
